Origin of values: patent US8063225B2

System: H929 (multiple myeloma)
Assay: Cell proliferation inhibition, Cell Titer-Glo, H929
Format: cell-based
Settings: Homo sapiens, NCI-H929; cell proliferation assay, H929 cells
pIC50: −log10 of the molar value.
ENDPOINT LABEL: pIC50

[
  {
    "MOLECULE": "Cc1c(Cl)cccc1OC[C@H](O)CNc1cc[nH]c(=O)c1-c1nc2cc3c(cc2[nH]1)C(=O)N(C1CCN(CCO)CC1)C3=O",
    "ENDPOINT LABEL": "pIC50",
    "VALUE REPORTED": "< 4.82"
  },
  {
    "MOLECULE": "Cc1ccc(Cl)c(OC[C@H](O)CNc2cc[nH]c(=O)c2-c2nc3cc4c(cc3[nH]2)C(=O)N(C2CCN(C)CC2)C4)c1F",
    "ENDPOINT LABEL": "pIC50",
    "VALUE REPORTED": "4.82 to 5.30"
  },
  {
    "MOLECULE": "CN1CCC(N2C(=O)c3cc4nc(-c5c(NCCc6c[nH]cn6)cc[nH]c5=O)[nH]c4cc3C2=O)CC1",
    "ENDPOINT LABEL": "pIC50",
    "VALUE REPORTED": "4.82 to 5.30"
  },
  {
    "MOLECULE": "Cc1ccc(OC[C@H](O)CNc2cc[nH]c(=O)c2-c2nc3c(C)c4c(cc3[nH]2)C(=O)N(C2CCN(C)CC2)C4=O)c(C)c1",
    "ENDPOINT LABEL": "pIC50",
    "VALUE REPORTED": "4.82 to 5.30"
  },
  {
    "MOLECULE": "CN1CCC(N2C(=O)c3cc4nc(-c5c(NC[C@@H](O)COc6cccc(-c7ccccc7)c6)cc[nH]c5=O)[nH]c4cc3C2=O)CC1",
    "ENDPOINT LABEL": "pIC50",
    "VALUE REPORTED": "4.82 to 5.30"
  },
  {
    "MOLECULE": "Cc1ccc(OC[C@H](O)CNc2cc[nH]c(=O)c2-c2nc3c(C)c4c(cc3[nH]2)CN(C2CCN(C)CC2)C4=O)c(C)c1",
    "ENDPOINT LABEL": "pIC50",
    "VALUE REPORTED": "> 6.30"
  },
  {
    "MOLECULE": "CN1CCC(N2C(=O)c3cc4nc(-c5c(NC[C@@H](O)COc6ccc7ccccc7c6)cc[nH]c5=O)[nH]c4cc3C2=O)CC1",
    "ENDPOINT LABEL": "pIC50",
    "VALUE REPORTED": "4.82 to 5.30"
  },
  {
    "MOLECULE": "CN1CCC(N2C(=O)c3cc4nc(-c5c(N[C@@H](CO)Cc6c[nH]cn6)cc[nH]c5=O)[nH]c4cc3C2=O)CC1",
    "ENDPOINT LABEL": "pIC50",
    "VALUE REPORTED": "4.82 to 5.30"
  },
  {
    "MOLECULE": "Cc1ccc(OC[C@H](O)CNc2cc[nH]c(=O)c2-c2nc3cc4c(cc3[nH]2)C(=O)N(C2CCN(CCN(C)C)CC2)C4=O)c(C)c1",
    "ENDPOINT LABEL": "pIC50",
    "VALUE REPORTED": "4.82 to 5.30"
  },
  {
    "MOLECULE": "CN1CCC(N2Cc3cc4nc(-c5c(NC[C@@H](O)COc6ccccc6C(F)(F)F)cc[nH]c5=O)[nH]c4cc3C2=O)CC1",
    "ENDPOINT LABEL": "pIC50",
    "VALUE REPORTED": "5.30 to 6.30"
  },
  {
    "MOLECULE": "CN1CCC(N2Cc3cc4nc(-c5c(NC[C@@H](O)COc6cc(F)cc(F)c6Cl)cc[nH]c5=O)[nH]c4cc3C2=O)CC1",
    "ENDPOINT LABEL": "pIC50",
    "VALUE REPORTED": "4.82 to 5.30"
  },
  {
    "MOLECULE": "CCc1c(OC[C@H](O)CNc2cc[nH]c(=O)c2-c2nc3cc4c(cc3[nH]2)CN(C2CCN(C)CC2)C4=O)ccc2c1OCO2",
    "ENDPOINT LABEL": "pIC50",
    "VALUE REPORTED": "4.82 to 5.30"
  },
  {
    "MOLECULE": "CN1CCC(N2C(=O)c3cc4nc(-c5c(NCC(O)COc6cccc(Cl)c6)cc[nH]c5=O)[nH]c4cc3C2=O)CC1 (stereo not shown)",
    "ENDPOINT LABEL": "pIC50",
    "VALUE REPORTED": "5.30 to 6.30"
  }
]
